test system: 922993-354-T-J3-PDC complex spheroids, viability; test: Anticancer human tumor 922993-354-T-J3-PDC patient-derived endometrial carcinoma cell line growth inhibition [GQUAD]; conditions: second compound 10 µM; first compound 0.00999 µM; active compounds read low;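 also: spheroids exposed to compounds for seven days; 100% = DMSO vehicle control viability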

>  <molecule>
CC[C@@]1(O)C(=O)OCc2c1cc1n(c2=O)Cc2cc3c(CN(C)C)c(O)ccc3nc2-1 + Cc1[nH]c2ccc(F)cc2c1-c1nc2c3cccnc3c3ncccc3c2[nH]1

>  <viability, T/C / %>
109

$$$$
>  <molecule>
CCc1c2c(nc3ccc(O)cc13)-c1cc3c(c(=O)n1C2)COC(=O)[C@]3(O)CC + CN(C)c1ccc(Nc2c3ccc(NC(=O)CCN4CCCC4)cc3nc3cc(NC(=O)CCN4CCCC4)ccc23)cc1

>  <viability, T/C / %>
49.3

$$$$
>  <molecule>
Cn1ncnc1[C@H]1c2n[nH]c(=O)c3cc(F)cc(c23)N[C@@H]1c1ccc(F)cc1 + Cc1cnc(CNC(=O)c2c(=O)c3ccc(N4CCCN(C)CC4)nc3n3c2sc2ccccc23)cn1

>  <viability, T/C / %>
48.4

$$$$
>  <molecule>
Cc1[nH]c2ccccc2c1CCNCc1ccc(/C=C/C(=O)NO)cc1 + CN(C)c1ccc(Nc2c3ccc(NC(=O)CCN4CCCC4)cc3nc3cc(NC(=O)CCN4CCCC4)ccc23)cc1

>  <viability, T/C / %>
106

$$$$
>  <molecule>
CCc1c2c(nc3ccc(O)cc13)-c1cc3c(c(=O)n1C2)COC(=O)[C@]3(O)CC + Cc1cnc(CNC(=O)c2c(=O)c3ccc(N4CCCN(C)CC4)nc3n3c2sc2ccccc23)cn1

>  <viability, T/C / %>
45.3

$$$$
>  <molecule>
CCc1c2c(nc3ccc(O)cc13)-c1cc3c(c(=O)n1C2)COC(=O)[C@]3(O)CC + Cc1[nH]c2ccc(F)cc2c1-c1nc2c3cccnc3c3ncccc3c2[nH]1

>  <viability, T/C / %>
48.5

$$$$
>  <molecule>
Cn1ncnc1[C@H]1c2n[nH]c(=O)c3cc(F)cc(c23)N[C@@H]1c1ccc(F)cc1 + Cc1[nH]c2ccc(F)cc2c1-c1nc2c3cccnc3c3ncccc3c2[nH]1

>  <viability, T/C / %>
119

$$$$
>  <molecule>
Cc1[nH]c2ccccc2c1CCNCc1ccc(/C=C/C(=O)NO)cc1 + Cc1[nH]c2ccc(F)cc2c1-c1nc2c3cccnc3c3ncccc3c2[nH]1

>  <viability, T/C / %>
88.2

$$$$
>  <molecule>
CC[C@@]1(O)C(=O)OCc2c1cc1n(c2=O)Cc2cc3c(CN(C)C)c(O)ccc3nc2-1 + Cc1cnc(CNC(=O)c2c(=O)c3ccc(N4CCCN(C)CC4)nc3n3c2sc2ccccc23)cn1

>  <viability, T/C / %>
43.3

$$$$
>  <molecule>
Cn1ncnc1[C@H]1c2n[nH]c(=O)c3cc(F)cc(c23)N[C@@H]1c1ccc(F)cc1 + CN(C)c1ccc(Nc2c3ccc(NC(=O)CCN4CCCC4)cc3nc3cc(NC(=O)CCN4CCCC4)ccc23)cc1

>  <viability, T/C / %>
123

$$$$
>  <molecule>
CC[C@@]1(O)C(=O)OCc2c1cc1n(c2=O)Cc2cc3c(CN(C)C)c(O)ccc3nc2-1 + CN(C)c1ccc(Nc2c3ccc(NC(=O)CCN4CCCC4)cc3nc3cc(NC(=O)CCN4CCCC4)ccc23)cc1

>  <viability, T/C / %>
110

$$$$
>  <molecule>
Cc1[nH]c2ccccc2c1CCNCc1ccc(/C=C/C(=O)NO)cc1 + Cc1cnc(CNC(=O)c2c(=O)c3ccc(N4CCCN(C)CC4)nc3n3c2sc2ccccc23)cn1

>  <viability, T/C / %>
44.8

$$$$
